Reference source for all entries: patent US20060264460A1

biological target: human Cot/Tpl2 kinase (Homo sapiens, UniProt P41279); construct: human Cot/Tpl2 kinase construct encoding residues 30-398; 6His (N); made in house; host or cells: Sf9 insect cells, baculovirus system (BD Biosciences); assay: Tpl2/Cot kinase assay: GST-MEK1 phosphorylation detected by ELISA (DELFIA Eu); format: biochemical; settings: Table 2; Tpl2/Cot kinase, GST-MEK1 substrate, 50 uM ATP
Sequence (P41279 30-398): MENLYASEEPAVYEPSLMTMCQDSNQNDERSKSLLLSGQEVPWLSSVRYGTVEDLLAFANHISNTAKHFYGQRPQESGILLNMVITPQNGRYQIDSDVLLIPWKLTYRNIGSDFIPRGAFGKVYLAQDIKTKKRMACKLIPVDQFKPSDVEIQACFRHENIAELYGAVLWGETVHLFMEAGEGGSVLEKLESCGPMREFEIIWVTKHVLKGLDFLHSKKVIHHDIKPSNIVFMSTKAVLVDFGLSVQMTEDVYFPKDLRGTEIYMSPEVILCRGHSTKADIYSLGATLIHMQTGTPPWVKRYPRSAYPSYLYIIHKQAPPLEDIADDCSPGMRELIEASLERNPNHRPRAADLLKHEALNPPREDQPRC
quantity: IC50 (nM)
Hi! Could you send only the number? It should be in nM, unit omitted.

So, N#Cc1cnc2c(Cl)cc(NCC(=O)Nc3ccncc3)cc2c1Nc1ccc(F)c(Cl)c1 ? Its IC50 was 2400

So, N#Cc1cnc2c(Cl)cc(NCc3cn(CCCO)nn3)cc2c1Nc1ccc(F)c(Cl)c1 ? Its IC50 was 3.6
